# abundance fitness per record follows
B1: Protein S100-G, residues 1 to 79; numbered along this chain, P02633 (parent)
chain: MSAKKSPEELKGIFEKYAAKEGDPNQLSKEELKLLLQTEFPSLLKGPSTLDELFEELDKNGDGEVSFEEFQVLVKKISQ

# Variants of: B1
# test description: abundance fitness (aPCA) (normalised: wild type 0, dead -1); higher = more abundant; growth selection in yeast, the domain comes from the species named
# condition context: Bos taurus
Please give only the number in your answer, with no unit.

entry sequence: NSAKKSPEELKGIFEKYAAKEGDPNQLSKEELKLLLQTEFPSLLKGPSTLDELFEELDKNGDGEVSFEEFQVLVKKISQ
observed property: abundance fitness
obs value: -0.186
--
entry sequence: MSACKSPEELKGIFEKYAAKEGDPNQLSKEELKLLLQTEFPSLLKGPSTLDELFEELDKNGDGEVSFEEFQVLVKKISQ
observed property: abundance fitness
obs value: -0.222
--
entry sequence: MSAKKSPEELKGIFEKYANKEGDPNQLSKEELKLLLQTEFPSLLKGPSTLDELFEELDKNGDGEVSFEEFQVLVKKISQ
observed property: abundance fitness
obs value: -0.017

Req: Annotate the variant MSAKKSPEELKGIFEKYAAKEGDPNQLSKEELKLLLQTWFPSLLKGPSTLDELFEELDKNGDGEVSFEEFQVLVKKISQ with its measured abundance fitness.
Resp: -0.349

Req: Answer with reported abundance fitness of MSAKKSPEELKGIFEKYAAKEGDPNQLSKEELRLLLQTEFPSLLKGPSTLDELFEELDKNGDGEVSFEEFQVLVKKISQ
Resp: -0.005

Req: Annotate the variant MSAKKSPEELKGIFEKYAAKEGDPNQCSKEELKLLLQTEFPSLLKGPSTLDELFEELDKNGDGEVSFEEFQVLVKKISQ with its measured abundance fitness.
Resp: 0.006

Req: Report abundance fitness, nothing else, for this variant: MSAKKSPEELKGIFEKYAAKEGDPNQLSKEELKGLLQTEFPSLLKGPSTLDELFEELDKNGDGEVSFEEFQVLVKKISQ
Resp: 0.035

Req: Return reported abundance fitness. Input variant: MSAKKSPEELKGIFEKYAAKEGDPNQLSKEELKLLLQTEFPVLLKGPSTLDELFEELDKNGDGEVSFEEFQVLVKKISQ
Resp: -0.058

Req: State, in one line, measured abundance fitness of MSAKKSPERLKGIFEKYAAKEGDPNQLSKEELKLLLQTEFPSLLKGPSTLDELFEELDKNGDGEVSFEEFQVLVKKISQ
Resp: -0.179
